Reference source for all entries: patent US6841682B2

# experimental.target: α1a-AR (Homo sapiens)
# Construct: expressed in transfected cells; host or cells: COS cells (pcDNA3 vector, DEAE-dextran transient transfection); membrane preparation
# Sequence (P35348 whole entry): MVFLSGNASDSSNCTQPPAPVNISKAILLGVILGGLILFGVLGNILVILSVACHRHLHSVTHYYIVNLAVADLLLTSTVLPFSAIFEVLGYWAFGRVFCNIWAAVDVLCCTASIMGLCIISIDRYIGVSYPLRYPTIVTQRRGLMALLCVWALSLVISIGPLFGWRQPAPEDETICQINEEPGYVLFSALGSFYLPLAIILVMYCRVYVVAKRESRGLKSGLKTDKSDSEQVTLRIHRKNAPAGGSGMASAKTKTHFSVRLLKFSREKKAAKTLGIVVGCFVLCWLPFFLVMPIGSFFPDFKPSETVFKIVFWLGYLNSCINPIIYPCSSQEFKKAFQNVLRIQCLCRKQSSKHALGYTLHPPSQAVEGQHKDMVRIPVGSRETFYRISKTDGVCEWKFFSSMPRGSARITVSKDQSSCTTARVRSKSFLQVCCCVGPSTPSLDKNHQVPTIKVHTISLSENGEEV
# measurement.notes: radioligand ([125I]-HEAT) receptor binding assay, COS cell membranes, α1a-AR
# condition.parameters: Tables A-J; [125I]-HEAT 50 pM, COS membranes; read-out: α1a IC50
quantity.name: log10 of IC50 (log10 of the value in nM)
Transform log10 | Measure IC50 | Unit nM

// log10 of IC50 lookup, compound = COc1ccccc1N1CCN(Cc2cccc(CN3CCCC3=O)n2)CC1 [compound 43] , result: 3.89

In plain terms, CC(C)Oc1ccccc1N1CCN(Cc2cc(CN3CCCCC3=O)nc(N)n2)CC1 [Compound 4] has a documented log10 of IC50 of 1.90

compound COc1ccccc1N1CCN(Cc2cccc(CN3CCCCCC3=O)n2)CC1 [compound 42] , log10 of IC50 observed: 3.93

CC(C)Oc1ccccc1N1CCN(Cc2cccc(CN3C(=O)CCC3=O)n2)CC1 [compound 46] has a reported log10 of IC50 of 1.84

// CC(C)Oc1ccccc1N1CCN(C/C=C/C(=O)CN2CCCCC2=O)CC1 [compound 36] : log10 of IC50 value = 0.80

Record summary for CC(C)Oc1ccccc1N1CCN(Cc2cc(CN3CCCCCC3=O)cs2)CC1 [compound 56] : reported log10 of IC50 = 0.57

Please fill in: log10 of IC50 reported for COc1ccccc1N1CCN(Cc2ccc(CN3CCCCC3=O)s2)CC1 [compound 48] = 1.46
